molecular target: recombinant DYRK1A kinase (Homo sapiens); assay: DYRK1A kinase assay (Ser/Thr 18 peptide Z-lyte FRET); assay type: biochemical; conditions: DYRK1A kinase activity; 15 μM ATP, 4 μM Ser/Thr peptide 18, one hour at room temperature
QUANTITY NAME: pEC50
Field pEC50 (float): negative decimal logarithm of the concentration in molar.

Entry CN1CCC(Oc2ncnc3ccc(-c4c[nH]c5nc(NC(=O)c6ccncc6)ccc45)cc23)CC1 — recorded pEC50 = 8.30

For CN1CCN(c2ccc(-c3cnc4[nH]cc(-c5ccc6ncccc6c5)c4c3)cn2)CC1 the molecule record lists pEC50 as 9.00

Memo: CN(CC(F)F)C(=O)c1cnc2ccc(-c3c[nH]c4nc(C5CC5)ccc34)cn12 , reported pEC50: 8.30

Note to self: pEC50 recorded for O=C(c1ncnc2ccc(-c3c[nH]c4ncccc34)cc12)N1CCNC2(CC2)C1 was 7.28

----------
molecular target: recombinant DYRK1A kinase (Homo sapiens, UniProt Q13627); experiment: DYRK1A kinase assay (Ser/Thr 18 peptide Z-lyte FRET); type: biochemical; settings: DYRK1A kinase activity; 15 μM ATP, 4 μM Ser/Thr peptide 18, one hour at room temperature
QUANTITY NAME: EC50 (µM)
Respond numerically; units are µM and should not be typed.

Measured EC50, Cc1nn(C)c(C)c1-c1cnc2[nH]cc(-c3cc(F)c4nc(C)n(C(C)C)c4c3)c2c1 : 0.002

For reference, reported EC50 for CN(C)Cc1cnc2ccc(-c3c[nH]c4ncccc34)cn12 stands at 0.017

Entry Cc1nc2c(F)cc(-c3c[nH]c4ncc(C(=O)Nc5cnn(C6CCN(C)CC6)c5)cc34)cc2n1C(C)C ; EC50 = 0.003

Reported EC50 of O=C(c1cnn2ccc(-c3c[nH]c4ncccc34)cc12)N1CC2CNCC2C1 (centres unmarked) : 0.005

Entry Cc1ccc2c(-c3ccc4ncccc4c3)c[nH]c2n1 ; EC50 = 0.002

response.value for CN1CCN(C(=O)c2cnn3ccc(-c4c[nH]c5ncc(F)cc45)cc23)CC1 (field: EC50) = 0.016

Looking up Cc1ccc2c(-c3ccc4c(c3)C(C)(C)NC4=O)c[nH]c2n1 , I found its EC50 recorded as 0.057

For reference, reported EC50 for O=C(Nc1cncc(F)c1)c1cnc2[nH]cc(-c3ccc4c(c3)C3(CCNCC3)CC4=O)c2c1 stands at 0.022

----------
Can you tell me EC50 for the items I'm about to list?
target: recombinant DYRK1A kinase (Homo sapiens); test: DYRK1A kinase assay (Ser/Thr 18 peptide Z-lyte FRET); settings: DYRK1A kinase activity; 15 μM ATP, 4 μM Ser/Thr peptide 18, one hour at room temperature
Write the answer as a number in nM, unit excluded.

Documented EC50 of CN1CCN(C(=O)c2cnn3ccc(-c4c[nH]c5ncc(Cl)cc45)cc23)CC1 : 12

Kindly note the recorded EC50 for Cc1ncccc1-c1cnc2[nH]cc(-c3cc(F)c4nc(C)n(C(C)C)c4c3)c2c1 , which is 2

Quick note, EC50 for Cc1nc2c(F)cc(-c3c[nH]c4ncc(Nc5ccnc(N6CCN(C)CC6)c5)cc34)cc2n1C(C)C landed at 2

The molecule listed as CN1CCN(C(=O)c2cnn3ccc(-c4c[nH]c5ncc(-c6cnn(C)c6)cc45)cc23)CC1 shows EC50 equal to 9

----------
So I've got a bunch of molecules here, and I need their pEC50 values.
biological target: recombinant DYRK1A kinase (Homo sapiens); assay: DYRK1A kinase assay (Ser/Thr 18 peptide Z-lyte FRET); conditions: DYRK1A kinase activity; 15 μM ATP, 4 μM Ser/Thr peptide 18, one hour at room temperature
Answer as the number alone; pEC50 is minus log10 of concentration in mol/L.

According to the records, this molecule CC1(C)NC(=O)c2cc(-c3c[nH]c4ncccc34)nn21 displays pEC50 of 7.72

Reported pEC50 of CN1CCN(c2cccc(Nc3ccc4c(-c5ccn6ncc(-c7cnn(C)c7)c6c5)c[nH]c4n3)c2)CC1 : 8.40

Query Cc1nnc2ccc(-c3c[nH]c4ncccc34)cn12 yields pEC50 of 6.82

Input CC1(C)CNC(=O)c2ccc(-c3c[nH]c4ncccc34)cc21 . Output pEC50: 8.22

Value of measured pEC50 for the entry CN1CCN(C(=O)c2cnc3[nH]cc(-c4ccn5ncc(-c6cnn(C)c6)c5c4)c3c2)CC1 : 7.80

Form field pEC50, entry O=C1NCCOc2cc(-c3c[nH]c4nc(C5CCC5)ccc34)ccc21 : 7.30

# pEC50 of Cn1cc(-c2cnc3[nH]cc(-c4ccc5nccn5c4)c3c2)cn1 = 8.70

c1cnc2[nH]cc(-c3ccc4nc5n(c4n3)CCC5)c2c1 has a reported pEC50 of 7.72

So for Cc1nc2c(F)cc(-c3c[nH]c4nc(C(C)C)ccc34)cc2n1C(C)C , the logged pEC50 turned out to be 7.44

----------
target: recombinant DYRK1A kinase (Homo sapiens, UniProt Q13627); experiment: DYRK1A kinase assay (Ser/Thr 18 peptide Z-lyte FRET); settings: DYRK1A kinase activity; 15 μM ATP, 4 μM Ser/Thr peptide 18, one hour at room temperature
Rule: EC50 below 3 nM gives T, anything at or above gives F.

Query: Just wondering, is EC50 of Cc1nc2c(F)cc(-c3c[nH]c4nc(NC(=O)C5CCN(C)CC5)ccc34)cc2n1C(C)C below 3 nM?
Response: T

Query: In plain terms, does O=C1NC2(CCCCC2)c2cc(-c3c[nH]c4ncccc34)ccc21 come in under 3 nM for EC50?
Response: F

Query: For CN1CC2CN(C(=O)c3cnn4ccc(-c5c[nH]c6ncccc56)cc34)CC2C1 (centres unmarked) , is the recorded EC50 below the cut-off of 3 nM?
Response: F

Query: EC50 under 3 nM? Item: CN1CC[C@@H](NC(=O)c2cnn3ccc(-c4c[nH]c5ncccc45)cc23)[C@H](F)C1
Response: T

Query: For this compound, is EC50 lower than 3 nM? COc1ccc2c(-c3ccc4nccn4c3)c[nH]c2n1
Response: F

Query: For CN1CCn2ncc(-c3cnc4[nH]cc(-c5ccn6ncc(C(=O)Nc7cccnc7)c6c5)c4c3)c2C1 , is the recorded EC50 below the cut-off of 3 nM?
Response: F

Query: Please check: EC50 for CN1CCN(C2CCN(C(=O)c3cnn4ccc(-c5c[nH]c6ncccc56)cc34)CC2)CC1 , strictly under 3 nM or not?
Response: F

----------
Would you kindly list EC50 for each of these compounds?
molecular target: recombinant DYRK1A kinase (Homo sapiens, UniProt Q13627); test: DYRK1A kinase assay (Ser/Thr 18 peptide Z-lyte FRET); details: DYRK1A kinase activity; 15 μM ATP, 4 μM Ser/Thr peptide 18, one hour at room temperature
Record the result as a number with its unit.

Given item CN1CCN(c2cc(CNc3ncnc4ccc(-c5c[nH]c6ncccc56)cc34)ccn2)CC1 , the value recorded as its EC50 is 4 nM

Lab note: CN1CCN(C(=O)c2cnc3cnc(-c4c[nH]c5ncccc45)cn23)CC1 gave EC50 of 16 nM

Documented EC50 of c1cnc2ccc(-c3c[nH]c4ncccc34)cc2c1 : 2 nM

GET /value?item= Cc1nc2c(F)cc(-c3c[nH]c4ncc(-c5ccccc5)cc34)cc2n1C(C)C &field=EC50 returns 4 nM

COc1ccc(Nc2ncnc3ccc(-c4c[nH]c5ncccc45)cc23)cn1 yielded EC50 of 6 nM

Reported EC50 for CN1CCN(c2cc(-c3cnc4[nH]cc(-c5ccc6nccn6c5)c4c3)ccn2)CC1 was 1 nM

Notebook: Cc1nc2c(F)cc(-c3c[nH]c4ncc(-c5ccc(N6CCN(C)CC6)nc5)cc34)cc2n1C(C)C , EC50 read as 1 nM

Noted for O=C(c1cnn2ccc(-c3c[nH]c4ncccc34)cc12)N1CCC(N2CCOCC2)CC1 : its EC50 reads 8 nM

----------
target: recombinant DYRK1A kinase (Homo sapiens, UniProt Q13627); assay: DYRK1A kinase assay (Ser/Thr 18 peptide Z-lyte FRET); conditions: DYRK1A kinase activity; 15 μM ATP, 4 μM Ser/Thr peptide 18, one hour at room temperature
QUANTITY NAME: log10(EC50) (log10 of the value in nM)
Short version: log10 scale, EC50, nM.

compound c1cnc2[nH]cc(-c3ccn4nccc4n3)c2c1 , log10(EC50) observed: 0.85

Item: CN1CCN(c2cccc(Nc3ccc4c(-c5ccc6c(c5)CCCO6)c[nH]c4n3)c2)CC1 | log10(EC50): 2.10

log10(EC50) recorded for this compound, Cc1nc2c(F)cc(-c3c[nH]c4ncc(-c5cc(F)c(F)c(N6CCNCC6)c5)cc34)cc2n1C(C)C , is 0.78

Quick note, log10(EC50) for CN1C2CCC1CN(C(=O)c1cnn3ccc(-c4c[nH]c5ncccc45)cc13)C2 landed at 1.08

Recorded result, CN1CCN(C(=O)c2cnn3ccc(-c4c[nH]c5nc(C6CC6)ccc45)cc23)CC1 , log10(EC50): 1.82

Lab note: FC(F)Oc1ccc2c(-c3ccc4nccn4c3)c[nH]c2n1 gave log10(EC50) of 1.26

Form field log10(EC50), entry COc1ccc(-c2c[nH]c3ncccc23)cn1 : 1.28

response.value for CN1CCN(c2ccc(NC(=O)c3cnc4[nH]cc(-c5ccn6ncnc6c5)c4c3)cn2)CC1 (field: log10(EC50)) = 1.00

CN1CCN(C(=O)c2cnc3[nH]cc(-c4ccc5c(c4)OCCNC5=O)c3c2)CC1 has a reported log10(EC50) of 0.95

// c1cncc(-c2cnn3ccc(-c4c[nH]c5ncccc45)cc23)c1 : log10(EC50) value = 0.30

Record summary for O=C1CC2(CCNCC2)Oc2cc(-c3c[nH]c4ncc(-c5cccnc5)cc34)ccc21 : reported log10(EC50) = 1.00

Quick note, log10(EC50) for O=C(c1cnn2ccc(-c3c[nH]c4ncccc34)cc12)N1CC2(CNC2)C1 landed at 0.60

Record CN1CCC(NC(=O)c2cnn3ccc(-c4c[nH]c5nc(C6CCCC6)ccc45)cc23)CC1 , field log10(EC50): 0.60

The recorded log10(EC50) for entry CCOc1ccc2c(-c3ccc4nccn4c3)c[nH]c2n1 equals 0.95

Summary for this compound, Cn1cc(-c2cnn3ccc(-c4c[nH]c5ncccc45)cc23)cn1 : log10(EC50) is 0.00

# log10(EC50) (compound: Cc1nc2c(F)cc(-c3c[nH]c4nc(C5CC5)ccc34)cc2n1C1CCN(C)CC1 ) is 0.70

Quick note, log10(EC50) for Cc1nc2c(F)cc(-c3c[nH]c4ncc(C(=O)N5C6CCC5CN(C)C6)cc34)cc2n1C(C)C landed at 0.30

So, CN1CCN(C(=O)c2cnn3ccc(-c4c[nH]c5ncccc45)cc23)CC1 ? Its log10(EC50) was 0.60

Lab book: log10(EC50) of CN1CCC(C(=O)Nc2ccc3c(-c4ccc5nn(C)cc5c4)c[nH]c3n2)CC1 noted as 0.00

Recorded result, O=C1NCCn2nc(-c3c[nH]c4ncccc34)cc21 , log10(EC50): 0.85

Input Cn1nnc2ccc(-c3c[nH]c4ncccc34)cc21 . Output log10(EC50): 0.60

Value of log10(EC50) reported for the compound Cc1nc2cnc(-c3c[nH]c4nc(C5CCC5)ccc34)cc2n1C(C)C is 3.31

The reported value for Cc1nc2c(F)cc(-c3c[nH]c4ncc(C(=O)Nc5ccc(N6CCN(C)CC6)nc5)cc34)cc2n1C(C)C in terms of log10(EC50) is 0.48

Sample c1cnc2[nH]cc(-c3cn4ccnc4cn3)c2c1 ; log10(EC50) observed: 1.00

The recorded log10(EC50) for entry CN1CCN(Cc2cnc3[nH]cc(-c4ccc5c(c4)C(C)(C)CNC5=O)c3c2)CC1 equals 1.98

The measured log10(EC50) associated with CN1CCN(c2cc(-c3cnc4[nH]cc(-c5ccc6ncccc6c5)c4c3)ccn2)CC1 reads 0.00

Just so you know, measured log10(EC50) for CC1(C)CC(=O)c2ccc(-c3c[nH]c4ncccc34)cc2O1 came out at 1.49

Input Cc1nc2c(F)cc(-c3c[nH]c4ncc(C(=O)O)cc34)cc2n1C(C)C . Output log10(EC50): 1.56

Looking up CN1CCN(c2cc(-c3cnc4[nH]cc(-c5ccn6ncc(-c7cnn(C)c7)c6c5)c4c3)ccn2)CC1 , I see its log10(EC50) listed as 0.00

The compound Cc1nc2ncc(-c3c[nH]c4ncccc34)cc2n1C(C)C showed log10(EC50) equal to 0.00

Noted for CN1CC2CCC(C1)N2C(=O)c1cnn2ccc(-c3c[nH]c4ncccc34)cc12 : its log10(EC50) reads 1.91

Form field log10(EC50), entry Cn1cc(-c2ccnc3[nH]cc(-c4ccc5ncccc5c4)c23)cn1 : 1.00

log10(EC50) in this record for c1cnc2[nH]cc(-c3cc4ccncc4s3)c2c1 : 1.00

get_value(item= Cc1ccncc1-c1cnc2[nH]cc(-c3cc(F)c4nc(C)n(C(C)C)c4c3)c2c1 , readout=log10(EC50)) returns 0.30
